Biological target: T1, MUC1 on HCT116/MUC1 cells (UniProt P15941 24-1255, limits assumed)
T1 construct: whole, on cells; also called MUC1 overexpressed cell line
T1 sequence (P15941 24-1255 limits assumed): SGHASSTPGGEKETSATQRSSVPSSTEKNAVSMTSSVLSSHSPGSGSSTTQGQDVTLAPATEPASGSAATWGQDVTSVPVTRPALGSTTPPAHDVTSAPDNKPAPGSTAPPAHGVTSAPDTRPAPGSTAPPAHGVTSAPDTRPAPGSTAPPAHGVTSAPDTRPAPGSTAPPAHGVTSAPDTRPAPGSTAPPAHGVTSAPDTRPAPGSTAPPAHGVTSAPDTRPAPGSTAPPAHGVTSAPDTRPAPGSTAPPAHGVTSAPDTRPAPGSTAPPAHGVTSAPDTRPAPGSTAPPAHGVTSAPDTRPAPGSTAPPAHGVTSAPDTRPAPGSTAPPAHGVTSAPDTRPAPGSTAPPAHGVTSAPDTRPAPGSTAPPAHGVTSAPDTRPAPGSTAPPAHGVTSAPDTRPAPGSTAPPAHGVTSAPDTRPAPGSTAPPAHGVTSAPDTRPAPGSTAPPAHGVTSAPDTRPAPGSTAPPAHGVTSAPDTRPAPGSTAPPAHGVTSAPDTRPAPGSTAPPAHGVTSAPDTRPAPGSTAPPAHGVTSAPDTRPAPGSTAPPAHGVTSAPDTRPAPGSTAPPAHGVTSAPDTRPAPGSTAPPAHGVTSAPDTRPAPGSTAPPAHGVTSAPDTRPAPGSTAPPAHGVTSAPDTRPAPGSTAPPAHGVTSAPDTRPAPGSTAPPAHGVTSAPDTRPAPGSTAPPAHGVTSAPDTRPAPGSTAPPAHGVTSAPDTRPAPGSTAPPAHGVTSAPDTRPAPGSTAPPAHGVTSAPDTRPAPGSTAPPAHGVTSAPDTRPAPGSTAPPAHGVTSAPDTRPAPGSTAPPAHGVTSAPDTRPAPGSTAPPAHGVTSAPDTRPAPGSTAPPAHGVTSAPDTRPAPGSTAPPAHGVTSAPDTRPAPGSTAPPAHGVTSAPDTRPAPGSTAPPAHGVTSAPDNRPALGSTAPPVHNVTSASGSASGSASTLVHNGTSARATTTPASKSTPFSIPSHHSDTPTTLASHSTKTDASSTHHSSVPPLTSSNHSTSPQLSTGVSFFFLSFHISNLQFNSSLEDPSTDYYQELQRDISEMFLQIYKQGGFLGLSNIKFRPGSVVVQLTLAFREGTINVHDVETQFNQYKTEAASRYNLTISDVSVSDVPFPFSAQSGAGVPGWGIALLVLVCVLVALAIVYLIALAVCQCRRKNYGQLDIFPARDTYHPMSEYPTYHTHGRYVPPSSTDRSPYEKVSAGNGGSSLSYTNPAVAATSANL
Assay: FACS titration, HCT116/MUC1 cells, antibody at 15.625 nM
Protocol: To assess cell binding, 2×10⁵ HCT116/MUC1 cells per well were washed with PBS twice and incubated in 200 μl of serial dilutions of chimeric or humanized antibodies for 1 hour at room temperature. After washing 3 times with PBS, secondary antibody (2 μg/ml Alexa Flour®488 goat anti-human IgG) was added to cells and incubated for 30 minutes at room temperature. After washing with PBS, cells were analyzed by using FACSCalibur (BD Bioscience, San Jose, Calif.) and Flowjo software.
Listed below: geometric mean values for each entry.
READOUT NAME: geometric mean

BINDER: VH5 + VL4 (antibody, V domains shown, Humanized IgG expressed in HEK293; also called humanized antibody VH5+VL4) VH: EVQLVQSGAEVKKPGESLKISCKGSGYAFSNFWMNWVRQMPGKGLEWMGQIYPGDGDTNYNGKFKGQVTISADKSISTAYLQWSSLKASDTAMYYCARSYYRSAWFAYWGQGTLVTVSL VL: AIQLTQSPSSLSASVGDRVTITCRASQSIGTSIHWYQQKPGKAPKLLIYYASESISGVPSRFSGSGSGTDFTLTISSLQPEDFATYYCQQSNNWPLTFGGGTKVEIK
READOUT NAME: geometric mean
READING: 67.1
--
BINDER: VH4 + VL1 (antibody, V domains shown, Humanized IgG expressed in HEK293; also called humanized antibody VH4+VL1) VH: QVQLVQSGAEVKKPGATVKISCKVSGYAFSNFWMNWVQQAPGKGLEWMGQIYPGDGDTNYNGKFKGRVTITADTSTDTAYMELSSLRSEDTAVYYCARSYYRSAWFAYWGQGTLVTVSR VL: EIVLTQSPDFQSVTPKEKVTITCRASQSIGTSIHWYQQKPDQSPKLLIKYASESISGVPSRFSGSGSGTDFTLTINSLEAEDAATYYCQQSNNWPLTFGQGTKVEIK
READOUT NAME: geometric mean
READING: 27
--
BINDER: VH5 + VL1 (antibody, V domains shown, Humanized IgG expressed in HEK293; also called humanized antibody VH5+VL1) VH: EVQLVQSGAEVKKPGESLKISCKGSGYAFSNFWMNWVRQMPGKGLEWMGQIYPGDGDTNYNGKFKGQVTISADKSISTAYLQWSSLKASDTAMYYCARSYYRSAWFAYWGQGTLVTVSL VL: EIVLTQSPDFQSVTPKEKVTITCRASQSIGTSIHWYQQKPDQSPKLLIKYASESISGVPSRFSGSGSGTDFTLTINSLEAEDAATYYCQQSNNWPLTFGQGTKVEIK
READOUT NAME: geometric mean
READING: 91.2
--
BINDER: VH1 + VL1 (antibody, V domains shown, Humanized IgG expressed in HEK293; also called humanized antibody VH1+VL1) VH: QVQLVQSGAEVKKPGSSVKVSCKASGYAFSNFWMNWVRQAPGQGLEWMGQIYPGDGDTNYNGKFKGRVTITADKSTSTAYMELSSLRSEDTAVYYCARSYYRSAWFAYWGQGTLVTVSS VL: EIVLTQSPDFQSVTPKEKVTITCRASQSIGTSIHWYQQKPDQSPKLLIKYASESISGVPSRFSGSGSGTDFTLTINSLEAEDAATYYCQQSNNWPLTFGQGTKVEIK
READOUT NAME: geometric mean
READING: 68.7
